target system: S. pneumoniae Topoisomerase IV ATPase (ParE) (Streptococcus pneumoniae serotype 4)
method description: S. pneumoniae Topoisomerase IV ATPase inhibition
Format: biochemical
condition set: values marked * are an average of two or more data points, read-out: % Inh (13 μM) of S. pneumoniae Topoisomerase IV ATPase
Field: inhibition at 13 µM. Provide a value for each of the compounds that follow.
# value in %; strip the unit string

# return recorded inhibition at 13 µM for input Cc1cc(C)cc(Nc2ncc(-c3cnc(OCCS(C)(=O)=O)c(C(=O)O)c3)c(-n3ccc(C(F)(F)F)n3)n2)c1 [Example 964]
40

Find the measured inhibition at 13 µM of COc1ncc(-c2cnc(Nc3ccc(F)c(Cl)c3)nc2NCCc2c[nH]cn2)cn1 [Example 462] and report it.
85

In one line, give reported inhibition at 13 µM of the entry CCn1cc(-c2cnc(Nc3cc(C)cc(OC)c3)nc2-n2nc(C(F)(F)F)cc2C)cc(C(=O)O)c1=O [Example 863] .
100

Entry CCNC(=O)c1cncc(-c2cnc(Nc3ccc(F)c(Cl)c3)nc2-n2ccc(C(F)(F)F)n2)c1 [Example 1125] needs its inhibition at 13 µM filled in; supply it.
51

Retrieve inhibition at 13 µM measured for COc1cc(Nc2ncc(-c3cnc(OC)c(C(=O)NS(=O)(=O)c4cccc(C(C)=O)c4)c3)c(-n3nc(C(F)(F)F)cc3C)n2)cc(OC)c1 [Example 844] and print it.
100

State, in one line, measured inhibition at 13 µM of COCCCNc1nc(Nc2ccc(F)c(Cl)c2)ncc1-c1nc(C(=O)O)cs1 [Example 912]
99

Read the entry COc1ncc(-c2cnc(Nc3ccc(F)c(Cl)c3)nc2-n2nc(C(F)(F)F)cc2C)cc1C(=O)NS(C)(=O)=O [Example 1025] and write its reported inhibition at 13 µM.
98

Answer with the recorded inhibition at 13 µM of CN(C)CCCNc1nc(Nc2ccc(F)c(Cl)c2)ncc1-c1ccc(C(=O)NCc2ccccc2)cc1 [Example 365] only.
110

// Input: CN(C)CCCNc1nc(Nc2ccc(F)c(Cl)c2)ncc1-c1ccc(F)c(C#N)c1 [Example 13] . Output its inhibition at 13 µM only.
102

Supply measured inhibition at 13 µM of COc1cc(Nc2ncc(-c3cncnc3)c(N[C@@H]3CCOC3)n2)cc(OC)c1 [Example 358] in your reply.
63

State, in one line, measured inhibition at 13 µM of CCOC(=O)c1cncc(-c2cnc(Nc3ccc(F)c(Cl)c3)nc2N2CCC(F)CC2)c1 [Example 121]
49.6

Supply reported inhibition at 13 µM belonging to this compound: CC(C)Nc1nc(Nc2ccc(F)c(Cl)c2)ncc1-c1cncnc1 [Example 59]
51.8

Query inhibition at 13 µM for Cc1cc(C(F)F)nn1-c1nc(Nc2ccc(F)c(Cl)c2)ncc1-c1cncc(C(=O)O)c1 [Example 530]
100

Name the recorded inhibition at 13 µM of the compound listed here: Cc1nccn1-c1nc(Nc2ccc(F)c(Cl)c2)ncc1-c1cncc(C(=O)O)c1 [Example 310]
80

Indicate the recorded inhibition at 13 µM value for this compound: COCCCNc1nc(Nc2ccc(F)c(Cl)c2)ncc1-c1cncc(S(C)(=O)=O)c1 [Example 987]
30

Check the records and state inhibition at 13 µM for Cc1cc(C(F)(F)F)nn1-c1nc(Nc2ccc(F)c(Cl)c2)ncc1-c1cnc(OC(C)C)c(C(=O)O)c1 [Example 960]
100

Provide one value: measured inhibition at 13 µM of O=C(O)c1cncc(-c2cnc(Nc3ccc(F)c(Cl)c3)nc2NCc2nc3ccccc3[nH]2)c1 [Example 241]
71.5

Respond only with inhibition at 13 µM recorded for CCOC(=O)c1cncc(-c2cnc(Nc3ccc(F)c(Cl)c3)nc2NCCN2CCOCC2)c1 [Example 100]
74.2

Retrieve inhibition at 13 µM measured for COc1cc(-c2cnc(Nc3ccc(F)c(Cl)c3)nc2NCCCN(C)C)cc(OC)n1 [Example 8] and print it.
87.6

Note down inhibition at 13 µM recorded for O=C(O)c1cncc(-c2cnc(Nc3ccc(F)c([N+](=O)[O-])c3)nc2N2CCOCC2)c1 [Example 436]
69

For the compound Cc1cc(C(F)(F)F)nn1-c1nc(Nc2ccc(F)c(Cl)c2)ncc1-c1cnc(NCCN2CCOCC2)c(C(=O)O)c1 [Example 1078] , give its reported inhibition at 13 µM.
100

Give me measured inhibition at 13 µM, please, for this compound: O=C(O)c1cncc(-c2cnc(Nc3ccc(F)c(Cl)c3)nc2-n2nnc3ccccc32)c1 [Example 318]
92.3

Return inhibition at 13 µM (reported value) for this compound: CN1CCN(CCNc2nc(Nc3ccc(F)c(Cl)c3)ncc2-c2cncc(C(=O)O)c2)CC1 [Example 263]
86.2

###

target system: S. pneumoniae Topoisomerase IV ATPase (ParE) (Streptococcus pneumoniae serotype 4, UniProt Q59961)
Sequence (Q59961 whole entry): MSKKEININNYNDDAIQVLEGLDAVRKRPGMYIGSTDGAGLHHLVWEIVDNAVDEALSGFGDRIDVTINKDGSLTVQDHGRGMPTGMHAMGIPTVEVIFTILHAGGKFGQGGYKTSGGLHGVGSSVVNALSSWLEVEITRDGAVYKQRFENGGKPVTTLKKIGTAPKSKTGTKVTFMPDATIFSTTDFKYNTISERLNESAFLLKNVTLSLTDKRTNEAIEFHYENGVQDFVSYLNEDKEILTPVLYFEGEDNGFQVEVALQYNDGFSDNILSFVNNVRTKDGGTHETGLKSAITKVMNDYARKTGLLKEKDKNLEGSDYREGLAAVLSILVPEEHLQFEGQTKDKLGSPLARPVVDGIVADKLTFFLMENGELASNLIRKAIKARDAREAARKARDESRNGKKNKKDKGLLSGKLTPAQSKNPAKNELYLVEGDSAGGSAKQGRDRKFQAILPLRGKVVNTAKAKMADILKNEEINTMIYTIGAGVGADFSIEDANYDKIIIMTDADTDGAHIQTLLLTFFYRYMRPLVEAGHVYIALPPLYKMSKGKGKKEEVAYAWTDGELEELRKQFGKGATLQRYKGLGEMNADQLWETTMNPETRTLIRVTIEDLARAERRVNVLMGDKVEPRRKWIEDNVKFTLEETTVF
method description: S. pneumoniae Topoisomerase IV ATPase inhibition
Format: biochemical
condition set: values marked * are an average of two or more data points, read-out: % Inh (13 μM) of S. pneumoniae Topoisomerase IV ATPase
Record form. Attribute: inhibition at 13 µM. Fill in for each entry.
Please respond with the number in % and leave the unit unwritten.

Supply inhibition at 13 µM value. Item: `COc1cc(C#N)cc(Nc2ncc(-c3cncc(C(=O)O)c3)c(-n3ccc(C(F)(F)F)n3)n2)c1`
100

Complete the entry with inhibition at 13 µM for `CCOC(=O)c1cncc(-c2cnc(Nc3ccc(F)c(Cl)c3)nc2NCCOc2ccccc2)c1`
0.15

// Input: `COC(=O)CC(=O)c1cncc(-c2cnc(Nc3ccc(F)c(Cl)c3)nc2-n2nc(C(F)(F)F)cc2C)c1` . Output its inhibition at 13 µM only.
100

Report inhibition at 13 µM for `N#Cc1cc(-c2cnc(Nc3ccc(F)c(Cl)c3)nc2-n2ccc(C(F)(F)F)n2)ccn1`
91

Report measured inhibition at 13 µM; entry is `COCCn1cc(-c2cnc(Nc3cc(OC)cc(OC)c3)nc2-n2nc(C(F)(F)F)cc2C)cc(C(=O)O)c1=O`
100

Check the records and state inhibition at 13 µM for `CCOC(=O)/C=C/c1cccc(-c2cnc(Nc3ccc(F)c(Cl)c3)nc2N2CCN(C(=O)N(C)C)CC2)c1`
47

Entry `COc1cc(C)cc(Nc2ncc(-c3cc(C(=O)NS(C)(=O)=O)c(=O)n(C)c3)c(-n3ccc(C(F)(F)F)n3)n2)c1` needs its inhibition at 13 µM filled in; supply it.
100

Query inhibition at 13 µM for `COc1ncc(-c2cnc(Nc3cc(C)cc(C#N)c3)nc2-n2ccc(C(F)(F)F)n2)cc1C(=O)O`
100

For the compound `CCNS(=O)(=O)c1cncc(-c2cnc(Nc3ccc(F)c(Cl)c3)nc2-n2ccc(C(F)(F)F)n2)c1` , give its reported inhibition at 13 µM.
64

Give reported inhibition at 13 µM value for `O=C(O)c1cc(-c2cnc(Nc3ccc(F)c(Cl)c3)nc2N2CCOCC2)ccn1`
9

Output inhibition at 13 µM of `CONC(=O)c1cncc(-c2cnc(Nc3ccc(F)c(Cl)c3)nc2-n2ccc(NC(C)=O)n2)c1`
94

State its inhibition at 13 µM: `CCNS(=O)(=O)c1cccc(-c2cnc(Nc3ccc(F)c(Cl)c3)nc2-n2ccc(C(F)(F)F)n2)c1`
89

# return recorded inhibition at 13 µM for entry `CS(=O)(=O)NC(=O)c1cccc(-c2cnc(Nc3ccc(F)c(Cl)c3)nc2-n2ccc(C(F)(F)F)n2)c1`
100

Name the recorded inhibition at 13 µM of the item `CN(C)C(=O)c1cccc(-c2cnc(Nc3ccc(F)c(Cl)c3)nc2-n2ccc(C(F)(F)F)n2)c1` in your answer.
24

Return inhibition at 13 µM for the following compound: `COc1cccc(Nc2ncc(-c3cccc(/C=C/C(=O)O)c3)c(N3CCOCC3)n2)c1`
70

###

target system: S. pneumoniae Topoisomerase IV ATPase (ParE) (Streptococcus pneumoniae serotype 4, UniProt Q59961)
method description: S. pneumoniae Topoisomerase IV ATPase inhibition
Format: biochemical
condition set: values marked * are an average of two or more data points, read-out: % Inh (13 μM) of S. pneumoniae Topoisomerase IV ATPase
measured parameter: inhibition at 13 µM (%)
Field format: number, assumed %, no unit text.

Using the record for `O=S(=O)(c1cncc(-c2cnc(Nc3ccc(F)c(Cl)c3)nc2-n2ccc(C(F)(F)F)n2)c1)N1CCOCC1` , state its measured inhibition at 13 µM.
51

# return recorded inhibition at 13 µM for entry `CONC(=O)c1cncc(-c2cnc(Nc3ccc(F)c(Cl)c3)nc2-n2ccc(-c3ccsc3)n2)c1`
95

// fetch inhibition at 13 µM given entry `CCOC(=O)/C=C/c1cccc(-c2cnc(Nc3ccc(F)c(Cl)c3)nc2N2CCN(C)CC2)c1`
46

Using the record for `COC(=O)c1cc(-c2cnc(Nc3ccc(F)c(Cl)c3)nc2-n2nc(C(F)(F)F)cc2C)cnc1OC` , state its measured inhibition at 13 µM.
83

Indicate the recorded inhibition at 13 µM value for this compound: `CN(C)CCCNc1nc(Nc2ccc(F)c(F)c2)ncc1-c1ccc(C(=O)O)s1`
76.5

Return inhibition at 13 µM for the following compound: COc1cc(Nc2ncc(-c3cncc(C(=O)O)c3)c(-n3nc(C(F)F)cc3C)n2)cc(OC)c1 [Intermediate 1126]
100

Assign inhibition at 13 µM to the following record: `CC(=O)N1CCN(c2nc(Nc3ccc(F)c(Cl)c3)ncc2-c2cncc(C(=O)O)c2)CC1`
80.3

Give the measured inhibition at 13 µM for `COc1ncc(-c2cnc(Nc3cccc(C(C)=O)c3)nc2-n2ccc(C(F)(F)F)n2)cc1C(=O)O`
100

Note inhibition at 13 µM for the compound shown: `CCCNc1nc(Nc2ccc(F)c(Cl)c2)ncc1-c1cncc(C(=O)OCC)c1`
24.6

Consider the compound `COc1cc(Nc2ncc(-c3cnc(OCCNC(C)=O)c(C(=O)NS(C)(=O)=O)c3)c(-n3nc(C(F)(F)F)cc3C)n2)cc(OC)c1` . State its measured inhibition at 13 µM.
100

Tell us which inhibition at 13 µM value is on record for `CN(C)CCn1cc(C(=O)O)c(=O)c2cc(-c3cnc(Nc4ccc(F)c(Cl)c4)nc3-n3ccc(C(F)(F)F)n3)ccc21`
93

Quick one: give measured inhibition at 13 µM for `Cc1cc(F)cc(Nc2ncc(-c3cncc(C(=O)O)c3)c(-n3ccc(C(F)(F)F)n3)n2)c1`
100

Please report inhibition at 13 µM for the following compound: `O=C(O)c1cn(CCN2CCOCC2)c2ccc(-c3cnc(Nc4ccc(F)c(Cl)c4)nc3-n3ccc(C(F)(F)F)n3)cc2c1=O`
100

Please report inhibition at 13 µM for the following compound: `COc1cc(Nc2ncc(-c3cnc(OC)c(C(=O)NS(=O)(=O)c4ccc(CNC(C)=O)cc4)c3)c(-n3nc(C(F)(F)F)cc3C)n2)cc(OC)c1`
97

Determine its reported inhibition at 13 µM: `O=C(O)/C=C/c1cccc(-c2cnc(Nc3cc(F)cc(Cl)c3)nc2N2CCOCC2)c1`
77

Look up and state reported inhibition at 13 µM for `CC(=O)NCCCNc1nc(Nc2ccc(F)c(Cl)c2)ncc1-c1cncnc1`
78.9

In one line, give reported inhibition at 13 µM of the entry `COCCCNc1nc(Nc2ccc(F)c(Cl)c2)ncc1-c1ccc2sc(C(=O)O)cc2c1` .
80.6

Supply inhibition at 13 µM value. Item: `CCOC(=O)c1cncc(-c2cnc(Nc3ccc(F)c(Cl)c3)nc2NCCNC(=O)OC(C)(C)C)c1`
59.4

Indicate the recorded inhibition at 13 µM value for this compound: `CCOC(=O)c1cncc(-c2cnc(Nc3ccc(F)c(Cl)c3)nc2NCCCN(C)C)c1`
104

Report inhibition at 13 µM for `CN1CCN(c2nc(Nc3ccc(F)c(Cl)c3)ncc2-c2cccc(/C=C/C(=O)O)c2)CC1`
72.2

Find the measured inhibition at 13 µM of `Cc1cc(C(F)(F)F)nn1-c1nc(Nc2ccc(F)c(Cl)c2)ncc1-c1cncc(C(=O)O)c1` and report it.
90.6

Tell me its inhibition at 13 µM given `Cc1cc(C)cc(Nc2ncc(-c3cccc(/C=C/C(=O)O)c3)c(-n3ccc(C(F)(F)F)n3)n2)c1` as the entry.
100

Please look at this compound and report its inhibition at 13 µM: COc1cc(Nc2ncc(-c3cnc(OC)nc3)c(N3CC(C)OC(C)C3)n2)cc(C(F)(F)F)c1 (stereo not drawn)
83.6

Provide inhibition at 13 µM value for the following compound: `NC(=O)CCNc1nc(Nc2ccc(F)c(Cl)c2)ncc1-c1cncnc1`
77.5

Give the reported inhibition at 13 µM for this compound. `O=C(O)/C=C/c1cccc(-c2cnc(Nc3ccc(F)c(Cl)c3)nc2NCCc2nc3ccccc3[nH]2)c1`
84.9

Look up and report measured inhibition at 13 µM for this entry: `Cc1cc(C(F)(F)F)nn1-c1nc(Nc2ccc(F)c(Cl)c2)ncc1-c1cncc(C(=O)NCCS(C)(=O)=O)c1`
100

Tell me measured inhibition at 13 µM for `CN(C)CCCNc1nc(Nc2ccc(F)c(Cl)c2)ncc1-c1ccc2sc(C(=O)O)cc2c1` please.
82.4

Identify inhibition at 13 µM associated with the compound `COc1ncc(-c2cnc(Nc3ccc(F)c(Cl)c3)nc2N[C@H]2CCOC2)cn1`
54

Using known records, supply inhibition at 13 µM for `O=C(O)c1cncc(-c2cnc(Nc3ccc(F)c(Cl)c3)nc2NCCc2ccncc2)c1`
79.6

// fetch inhibition at 13 µM given entry `CCOC(=O)c1ccc(-c2cnc(Nc3ccc(F)c(Cl)c3)nc2NCCCN(C)C)cc1`
102
